assay: Components of the Cytosolic LPS Sensing Pathway: Gene Identification via Genome-wide siRNA Screen; conditions: RAW264.7 macrophages, IL-1a HTRF, actives lie on both sides, screened at 100 nM (by protocol), cells primed 5 h with Pam3CSK4 first
Hit rate of the full screen: of about 53,000 sequences, about 3,700 (7%) were called active.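 How the source made its calls: active means gene knockdowns whose robust z-score for IL-1 alpha signal is at least 2 or at most -2, so actives lie on both sides; inactive means the rest.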 The entries come from a sample that favours actives as a whole.
Response enum: active, inactive

CCUAGACUUGAACAAACACTT against Lsm12 ... active
GGAUAUUCACUUUCAUAUGTT against Gulp1 ... inactive
GGUACUUUCGGACUCAGUUTT against Ipp ... inactive
GGCAGAUGAUCCCGGGAUUTT against Clvs1 ... inactive
GGAACAGUUCCUUGUGGUUTT against Uqcrh ... inactive

Now let's try a different one.
Call for entry CCGAAGUCAACUAAACUUATT against Rmc1 :
inactive

====

# Lookup of reported z-score keyed by entry
experiment: Components of the Cytosolic LPS Sensing Pathway: Gene Identification via Genome-wide siRNA Screen; conditions: RAW264.7 macrophages, IL-1a HTRF, actives lie on both sides, screened at 100 nM (by protocol), cells primed 5 h with Pam3CSK4 first
The whole screen tested about 53,000 sequences, of which about 3,700 (7%) were called active. The sample as a whole holds a higher share of actives than the screen did.

Previously resolved entries follow.
GGACUUCACAUUCUUGAGATT against A130010J15Rik ... -0.232 (inactive)
GCGAGAUGCCAACAAACUGTT against Pacs1 ... 0.678 (inactive)
GGCCAAAGUACUUUGUUCCTT against Pdpr ... 3.63 (active)
GGUUCAGACAACUCAGUGGTT against Pbx1 ... 0.813 (inactive)
CGUGUAAACGCAAUUAAAATT against Zfp870 ... 0.272 (inactive)

May I ask what z-score has been recorded for GGAGUGCGGACGAUAAUACTT against Ppp1r3f ?
-1.97 (inactive)

May I ask what z-score has been recorded for GCUCACCUUUCUUGAGAAATT against 4930579C12Rik ?
-0.179 (inactive)

May I ask what z-score has been recorded for GGUACAACUGCUCAUUUUUTT against Rhbdd1 ?
-0.0082 (inactive)

May I ask what z-score has been recorded for GGAUUCUGAAAUCAGUGCUTT against Capn8 ?
1.52 (inactive)

May I ask what z-score has been recorded for GGGCCAAUAAAGAGGACAGTT against Aanat ?
2.38 (active)

====

assay: Components of the Cytosolic LPS Sensing Pathway: Gene Identification via Genome-wide siRNA Screen; conditions: RAW264.7 macrophages, IL-1a HTRF, actives lie on both sides, screened at 100 nM (by protocol), cells primed 5 h with Pam3CSK4 first
The campaign covered roughly 53,000 sequences. About 3,700 (7%) were called active. Shown is part of a subset that was picked to be rich in actives.
reported endpoint: z-score
Respond numerically, and do not add a unit to the figure.

Previously resolved entries follow.
GACACCCUGUGACACCAAGTT against Sprr1b ... -0.597
GGCUUGUUAAUGAAUGCACTT against Ankrd9 ... -0.894
GGUACCACCAUGCUAUGGUTT against Krtap19-9b ... 0.646
GGUAACAAACCGAAAGUAUTT against Polr3k ... -0.539
GCUAAUCACCAAAGCUGAGTT against Larp7 ... 0.546

May I ask what z-score has been recorded for GCCGGCAGUAAAGAUUCAUTT against Cog2 ?
0.938

May I ask what z-score has been recorded for GGGAAAACACAAAGAAGAATT against Angpt1 ?
0.307

====

test: Components of the Cytosolic LPS Sensing Pathway: Gene Identification via Genome-wide siRNA Screen; details: RAW264.7 macrophages, IL-1a HTRF, actives lie on both sides, screened at 100 nM (by protocol), cells primed 5 h with Pam3CSK4 first;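 further: robust z of the log signal after scaling to non-targeting control siRNA wells of the plate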
The campaign covered roughly 53,000 sequences. About 3,700 (7%) were called active. The entries come from a sample that favours actives as a whole.
reported endpoint: z-score
Respond numerically, and do not add a unit to the figure.

Previously resolved entries follow.
GGUAUAGUUAAAGUGAGAGTT against Sp8 ... -0.883
GGUCAGUCAACAUGAACUUTT against Acad9 ... 0.0973
GGAACAUAACUCUUGUAUATT against Dhx35 ... -1.52
GCUUCUCUACACCACAGACTT against Olfr796 ... -0.0426
GGUCAUCCUCAAGUCUCCUTT against Stmn3 ... -2.28

Would you kindly look at the next entry?
May I ask what z-score has been recorded for GGACUGGUGGACAUAUGAATT against Os9 ?
2.81

====

assay: Components of the Cytosolic LPS Sensing Pathway: Gene Identification via Genome-wide siRNA Screen; conditions: RAW264.7 macrophages, IL-1a HTRF, actives lie on both sides, screened at 100 nM (by protocol), cells primed 5 h with Pam3CSK4 first;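 further: robust z of the log signal after scaling to non-targeting control siRNA wells of the plate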
The campaign covered roughly 53,000 sequences. About 3,700 (7%) were called active. This excerpt belongs to a sample that is enriched for actives.
Please enter rule met where z-score is greater than or equal to -0.1, and rule not met where it is lower.

Look over these answered cases.
GCAGGUCACUUUCUAGAGATT against Srsf3 ... rule not met
CGUUGUAUGCUAGUACUGATT against Olfr1501 ... rule not met
GCUGUCAGAAAUCUUCGACTT against E2f4 ... rule met
CCACACGUUCCAUUUCUCGTT against Hilpda ... rule not met

Test whether the sequence GGAACCAUGAAAUAAAUGUTT against Acad8 records z-score of -0.1 or higher.
rule met

Test whether the sequence GCUUAGAAUCUCUGGACAATT against Rnf168 records z-score of -0.1 or higher.
rule met

Test whether the sequence GCUAUUCUGUCUACGUGUATT against H2bc18 records z-score of -0.1 or higher.
rule not met

Test whether the sequence CCGCCGAUCUACUAGUGGUTT against Slc6a2 records z-score of -0.1 or higher.
rule met

Test whether the sequence GGAGAUAAUCCUGAAUGGCTT against Hsd3b6 records z-score of -0.1 or higher.
rule not met

====

test: Components of the Cytosolic LPS Sensing Pathway: Gene Identification via Genome-wide siRNA Screen; conditions: RAW264.7 macrophages, IL-1a HTRF, actives lie on both sides, screened at 100 nM (by protocol), cells primed 5 h with Pam3CSK4 first;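 further: robust z of the log signal after scaling to non-targeting control siRNA wells of the plate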
Out of some 53,000 sequences screened, about 3,700 (7%) were called active. This is one part of a sample in which actives are shown more often than they occur.
# Lookup of reported z-score keyed by entry
Respond numerically, and do not add a unit to the figure.

GCCAAUUUUGAACCACUACTT against Itga8 ... -0.56
GGAGCAAGUAUUUACAUUGTT against Psmd10 ... 1.55
GCCCUGGAAAGGAUGUUUGTT against Hba-a1 ... -0.607
GGAAGUGUAUUCAAGAAGUTT against Tapt1 ... 3.02
GGUAUGAGCUGAUCAAGUATT against Slc27a2 ... 1.67
GGAUGGACCAUCAGCUUCATT against Olfr1152 ... -2.25

May I ask what z-score has been recorded for GGGCUCACUCUGUCUCUACTT against Rpp25l ?
-0.378

May I ask what z-score has been recorded for GGACAAAAGACACAUGUUGTT against Miip ?
-0.674

May I ask what z-score has been recorded for GCAUGACUCUCAGGUCAAGTT against Lman2 ?
1.54

May I ask what z-score has been recorded for GGAACCAGAUCUCAUGCCCTT against Endov ?
-1.47

====

# Lookup of reported z-score keyed by entry
assay: Components of the Cytosolic LPS Sensing Pathway: Gene Identification via Genome-wide siRNA Screen; details: RAW264.7 macrophages, IL-1a HTRF, actives lie on both sides, screened at 100 nM (by protocol), cells primed 5 h with Pam3CSK4 first;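 further: robust z of the log signal after scaling to non-targeting control siRNA wells of the plate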
Among all 53,000 sequences or so, about 3,700 (7%) were called active. Shown is part of a subset that was picked to be rich in actives.
Respond numerically, and do not add a unit to the figure.

CGACAACGACAUCAUGGAATT against Sfrp2 ... 1.52

May I ask what z-score has been recorded for GGGAUAUGUGACUAUGUUATT against Slc5a7 ?
-0.138

May I ask what z-score has been recorded for GGAAUGCUUAAAGCUUUAATT against Clasp2 ?
0.353

May I ask what z-score has been recorded for GUGGACUUUUAGCAAUCAGTT against Olfr98 ?
-1.55

May I ask what z-score has been recorded for GCUUCAGGUCAGUCUCUUCTT against Olfr1042 ?
0.969

May I ask what z-score has been recorded for GGAAGAGUGACCUUAAGUCTT against Arhgap30 ?
2.29

May I ask what z-score has been recorded for GGUUGGUAGGAUGGACAAGTT against Rab11b ?
2.45

May I ask what z-score has been recorded for CCUGAUAAGCAAAUACGGCTT against Rep15 ?
-0.893

May I ask what z-score has been recorded for GCCAUCGCUAACUUACGGATT against Gdpd5 ?
-1.81
